- experimental.target: NA from influenza A(H3N2) virus isolates (Influenza A virus, UniProt V5P6L4)
- Assay type: biochemical
- conditions.used: read-out: IC50 Median (range)
recorded.metric: pIC50
pIC50 (log units): -log10 of the concentration in mol/L.

Request: Quick one: pIC50 for CCOC(=O)C1=C[C@@H](OC(CC)CC)[C@H](NC(C)=O)[C@@H](N)C1 [oseltamivir] ?
Result: 10.30

* * *

- experimental.target: NA from influenza A(H3N2) virus isolates (Influenza A virus)
- Type: biochemical
- conditions.used: read-out: IC50 X 0.75 (75th percentile)
recorded.metric: IC50 (nM)
The reply should be a number in nM, with the unit left off.

Request: IC50 lookup needed for CCOC(=O)C1=C[C@@H](OC(CC)CC)[C@H](NC(C)=O)[C@@H](N)C1 , thanks.
Result: 0.06
